Every entry's value here was drawn from patent US10429300B2.

# Tested on: rNav1.2a
# TEST SUMMARY: Two-electrode voltage-clamp, rNav1.2a expressed in Xenopus oocytes
# Format: cell-based, rat
# RUN PARAMETERS: 100 nM toxin; single-exponential fit of current decay; n=3, mean±SEM
REPORTED PROPERTY: fast inactivation time constant (τ) after toxin application

>>> assay_result("LqqV: Nav channel-selective α-scorpion toxin from Leiurus quinquestriatus hebraeus (protein) LKDGYIVDDKNCTFFCGRNAYCNDECKKKGGESGYCQWASPYGNACWCYKLPDRVSIKEKGRCN")
4.6
>>> assay_result("AaHI: Nav channel-selective α-scorpion toxin from Androctonus australis hector (protein) KRDGYIVYPNNCVYHCVPPCDGLCKKNGGSSGSCSFLVPSGLACWCKDLPDNVPIKDTSRKCT")
4.7
>>> assay_result("AaHII: Nav channel-selective α-scorpion toxin from Androctonus australis hector; model toxin (protein) VKDGYIVDDVNCTYFCGRNAYCNEECTKLKGESGYCQWASPYGNACYCYKLPDHVRTKGPGRCH")
4.9
>>> assay_result("BomIV: α-like scorpion toxin from Buthus occitanus mardochei (protein) GRDAYIAQPENCVYECAKNSYCNDLCTKNGAKSGYCQWLGKYGNACWCEDLPDNVPIRIPGKCHF")
8.5
